- Test target: T1, DR4G111: Human HLA-DQA1*01:02/DQB1*06:02 ECD with insulin peptide INS_1-15 (human)
- T1 construct: also called DQB6:02
- Assay: MSD ECL; antigen coated; mAb 5 µg/ml
Measured attribute: ECL signal (ECL)
The response must be a number in ECL with no trailing unit.

Requested field: ECL signal. Item: DR4B30 (antibody, human IgG2, kappa, V domains shown, also called VH DR4H39 / VL PH9L3) VH: EVQLVQSGAEVKKPGESLKISCKGSGYSFTSDWIGWVRQMPGKGLEWMGIIRPGDSDTYYSPSFQGQVTISADKSISTAYLQWSSLKASDTAVYYCARESYYYVGVRYRPSYYFDYWGQGTLVTVSS VL: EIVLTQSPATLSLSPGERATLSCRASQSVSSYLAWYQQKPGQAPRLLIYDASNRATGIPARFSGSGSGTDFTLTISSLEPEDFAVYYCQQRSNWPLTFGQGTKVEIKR
12900

Each recorded value in this set is attributed to patent US20180355043A1.
